Source of measurements: patent US20180186796A1

assay: Water solubility assay; conditions: water, 20 °C, thermodynamic from solid
Kindly state solubility thermodynamic at 24 h for each of the entries shown.
Number in µg/mL, nothing else.

## Input Fill blank: measured solubility thermodynamic at 24 h of the compound CN1CCN(CCOC(=O)N(Cc2ccccc2Cl)c2ncnc3c2cnn3CC(Cl)c2ccc(Br)cc2)CC1 (centres unmarked) [proSi221] is ____.
## Output 1.95

## Input Fill blank: measured solubility thermodynamic at 24 h of the compound CSc1nc(N(C(=O)OCCN2CCN(C)CC2)c2cccc(Cl)c2)c2cnn(CC(Cl)c3ccccc3)c2n1 (centres unmarked) [proSi83] is ____.
## Output 4.22

## Input Fill blank: measured solubility thermodynamic at 24 h of the compound CN1CCN(CCOC(=O)N(c2ccccc2)c2ncnc3c2cnn3CC(Cl)c2ccc(Br)cc2)CC1 (centres unmarked) [proSi223] is ____.
## Output 41.6

## Input Fill blank: measured solubility thermodynamic at 24 h of the compound CSc1nc(N(C(=O)OCCN2CCN(C)CC2)c2cccc(Cl)c2)c2cnn(CCc3ccccc3)c2n1 [proSi214] is ____.
## Output 6.32

## Input Fill blank: measured solubility thermodynamic at 24 h of the compound CSc1nc(NCCc2ccccc2)c2cnn(CC(Cl)c3ccccc3)c2n1 (centres unmarked) [Si35] is ____.
## Output 0.07

## Input Fill blank: measured solubility thermodynamic at 24 h of the compound CSc1nc(N(CCc2ccccc2)C(=O)OCCN2CCN(C)CC2)c2cnn(CC(Cl)c3ccccc3)c2n1 (centres unmarked) [proSi35] is ____.
## Output 107

## Input Fill blank: measured solubility thermodynamic at 24 h of the compound CCC(CN1CCN(C)CC1)OC(=O)N(c1cccc(Br)c1)c1nc(SC)nc2c1cnn2CC(C)c1ccccc1 (centres unmarked) [proSi278 (C)] is ____.
## Output 1.96

## Input Fill blank: measured solubility thermodynamic at 24 h of the compound CN1CCN(CCOC(=O)N(c2cccc(Br)c2)c2nc(SCCN3CCOCC3)nc3c2cnn3CC(Cl)c2ccccc2)CC1 (centres unmarked) [proSi306] is ____.
## Output 8.7

## Input Fill blank: measured solubility thermodynamic at 24 h of the compound CSc1nc(Nc2cccc(Cl)c2)c2cnn(CC(Cl)c3ccccc3)c2n1 (centres unmarked) [Si83] is ____.
## Output 0.13

## Input Fill blank: measured solubility thermodynamic at 24 h of the compound CN1CCN(CCOC(=O)N(Cc2ccccc2)c2ncnc3c2cnn3CC(Cl)c2ccccc2)CC1 (centres unmarked) [proS13] is ____.
## Output 18.8

## Input Fill blank: measured solubility thermodynamic at 24 h of the compound CSc1nc(N(C(=O)OC(C)CN2CCN(C)CC2)c2cccc(Br)c2)c2cnn(CC(C)c3ccccc3)c2n1 (centres unmarked) [proSi278 (B)] is ____.
## Output 3.4

* * *

Kindly state H2O Sol. for each of the entries shown.
experiment: Water solubility assay; conditions: Table 8, 20° C., 24 h
Number in µg/mL, nothing else.

## Input Fill blank: measured H2O Sol. of the molecule ClC(Cn1ncc2c(Nc3cccc(Br)c3)nc(SCCN3CCOCC3)nc21)c1ccccc1 (stereo not shown) is ____.
## Output 3.70

## Input Fill blank: measured H2O Sol. of the molecule CSc1nc(N(C(=O)OCCN2CCN(C)CC2)c2cccc(Br)c2)c2cnn(CC(C)c3ccccc3)c2n1 (stereo not shown) is ____.
## Output 6.47
